tested on: LOX IMVI; test: NCI tumour cell line growth inhibition, 48 h
Activity calls are given as the source filed them. Cut-off read from the data, not from the text of the source: active = GI50 up to about 1.1 µM and inactive = higher.
Measure name: GI50

• C[C@@H](C(=O)O)c1ccc(-c2ccccc2)c(F)c1 [TARENFLURBIL] = > 100 µM (inactive)
• CC(=O)Nc1ccc(/C=C(\NC(=O)c2ccccc2)C(=O)NNS(=O)(=O)c2ccc(C)cc2)cc1 = 16.4 µM (inactive)
• CCOC(=O)C1N(S(=O)(=O)c2ccc(C)cc2)CCC12C(c1ccc(OC)cc1)NC1CCCCC12 (stereo not drawn) = > 100 µM (inactive)
• Oc1ccc2oc3c(O)c4ccccc4cc3c2c1 = 4.08 µM (inactive)
• Cc1ccc(C(=O)OCC(C)C)cc1/N=N/N(C)C = 31.1 µM (inactive)
• Cc1c2c(c(C)c3c1[nH]c1ccccc13)CN(C)CC2 = 15.5 µM (inactive)
• COc1ccc(-c2nc(-c3cnccn3)n(COCCO)n2)cc1 = > 100 µM (inactive)
• CCOC(=O)c1sc2nc(SC)nc3c2c1NCN3C = 36 µM (inactive)
